Data provenance is BigSolDB 2.1.

# APPLIED CONDITIONS: in 1,2-dichloroethane, 304.97 K
RECORDED METRIC: solubility (mole fraction)
Response field accepts a number only; no unit should be typed.

query: Return reported solubility (mole fraction); argument: O=[N+]([O-])/N=C1\NCCN1Cc1ccc(Cl)nc1
result: 0.0116

---

# APPLIED CONDITIONS: in water, 348.94 K
RECORDED METRIC: solubility (mole fraction)
Response field accepts a number only; no unit should be typed.

query: Return reported solubility (mole fraction); argument: O=[N+]([O-])/N=C1\NCCN1Cc1ccc(Cl)nc1
result: 0.000363

---

# APPLIED CONDITIONS: in methanol, 305.86 K
RECORDED METRIC: solubility (mole fraction)
Response field accepts a number only; no unit should be typed.

query: Return reported solubility (mole fraction); argument: O=[N+]([O-])/N=C1\NCCN1Cc1ccc(Cl)nc1
result: 0.00179
